Test system: OVCAR-4
EXPERIMENTAL PROTOCOL: NCI tumour cell line growth inhibition, 48 h
Active and inactive are the calls of the source. No stated cut-off is given here; in the data, active = GI50 up to about 1.1 µM and inactive = higher.
MEASURED METRIC: GI50

Answered cases to consult:
- COMPOUND: "O=C1/C(=C/c2cccc(Cl)c2)CCCc2ccccc21"
  STUDY TARGET: "OVCAR-4"
  GI50: "15.8 µM (inactive)"
- COMPOUND: "Cc1cc(Cc2cc(C)c(N)cc2N)c(N)cc1N"
  STUDY TARGET: "OVCAR-4"
  GI50: "> 100 µM (inactive)"
- COMPOUND: "c1ccc(C2=Nc3nc4ccccc4n3C(c3ccccc3)C2)cc1 (configuration not stated)"
  STUDY TARGET: "OVCAR-4"
  GI50: "> 100 µM (inactive)"
- COMPOUND: "O=C(O)CCCCCCC[C@@H]1S[C@H]1CCCCCCO"
  STUDY TARGET: "OVCAR-4"
  GI50: "> 100 µM (inactive)"
- COMPOUND: "O=C(O/N=C1\\CCCC\\C1=C/c1ccccc1)c1ccc([N+](=O)[O-])cc1"
  STUDY TARGET: "OVCAR-4"
  GI50: "33.1 µM (inactive)"

// sample CCCCC1(O)CC2CC1C(C)C2(C)C (configuration not stated) , its GI50 was > 100 µM (inactive)

Entry `CCCNC1=C2C[C@@H](C)C[C@@H](OC)[C@@H](OC(=O)CCCN)[C@H](C)/C=C(\C)[C@@H](OC(N)=O)[C@H](OC)/C=C\C=C(/C)C(=O)NC(=CC1=O)C2=O` , GI50 reported as 18.7 µM (inactive)

Please fill in: GI50 reported for `CCOC(=O)CCn1[nH]c(=O)c(Cl)c(Cl)c1=O` = > 100 µM (inactive)

Reported GI50 for Cc1ccc2c(c1C)C(=O)C1(Cc3cc4c(cc3C1=O)CCC4)C2 (configuration not stated) was > 100 µM (inactive)

Looking up CC(C)(C)OC(=O)N1N=NC2C1C1CC(OCc3ccccc3)(OCc3ccccc3)C2O1 (configuration not stated) , I see its GI50 listed as 32.5 µM (inactive)

GI50 reported for this compound COC(=O)C1C(OCc2ccccc2)C2CCC1(OC)C=C2C (configuration not stated) : > 100 µM (inactive)

Looking up O=[N+]([O-])c1ccc(C2ON=C(c3ccccc3)N2C23CC4CC(CC(C4)C2)C3)cc1 (configuration not stated) , I found its GI50 recorded as > 10 µM (inactive)

The compound `COc1ccc2oc3c(ccc[n+]3C)c(=O)c2c1` showed GI50 equal to > 100 µM (inactive)

GI50 for Clc1cccc(Cl)c1C1SCc2nc3ncccc3n21 (configuration not stated) is 52.2 µM (inactive)

###

Tested on: RPMI-8226
EXPERIMENTAL PROTOCOL: NCI tumour cell line growth inhibition, 48 h
Calls of active or inactive are those of the source. Cut-off read from the data, not from the text of the source: active = GI50 up to about 1.1 µM and inactive = higher.
MEASURED METRIC: GI50

- COMPOUND: "COc1ccc(-n2c(N)c(C#N)c(C#N)c2-c2cccc([N+](=O)[O-])c2)cc1"
  VALUE OBSERVED: "5.37 µM (inactive)"
- COMPOUND: "Cn1c(=O)c2c(nc3n(C)c(=O)c4ccccc4n23)n(C)c1=O"
  VALUE OBSERVED: "20.7 µM (inactive)"
- COMPOUND: "NC1(CCNC(=O)c2ccccc2)CCN(C(=O)c2ccccc2)CC1"
  VALUE OBSERVED: "> 100 µM (inactive)"
- COMPOUND: "O=C(O)C(CS)NCc1c2ccccc2[n+]([O-])c2ccccc12 (stereo not drawn)"
  VALUE OBSERVED: "26.3 µM (inactive)"
- COMPOUND: "C[C@]12CCC(=O)C=C1CC[C@@H]1[C@@H]2[C@@H](O)C[C@@]2(C)[C@H]1CC[C@]2(O)C(=O)COC(=O)COCC(=O)O"
  VALUE OBSERVED: "> 100 µM (inactive)"

The reported GI50 of the compound CC(C)=CCC[C@](C)(O)[C@H]1CC[C@]2(C)[C@@H]1[C@H](O)C[C@@H]1[C@@]3(C)CC[C@H](O[C@@H]4O[C@H](CO)[C@@H](O)[C@H](O)[C@H]4O)C(C)(C)[C@@H]3CC[C@]12C [GINSENOSIDE RH2] was 19.1 µM (inactive)

Consider `O=c1oc2c/c(=C\c3ccccc3)c(=O)c3cccc1c3-2` . Its measured GI50 is 36.2 µM (inactive)

Form: compound = `COC(=O)c1ccc2cc(O)ccc2c1` ; GI50 = 53.5 µM (inactive)

###

Listed compounds paired with reported GI50
Tested on: UO-31
EXPERIMENTAL PROTOCOL: NCI tumour cell line growth inhibition, 48 h
Calls of active or inactive are those of the source. Rule as the data show it: active = GI50 up to about 1.1 µM and inactive = higher.

- COMPOUND: "N[C@H](C(=O)O)[C@H](Cl)CC(=O)O"
  STUDY TARGET: "UO-31"
  MEASURED METRIC: "GI50"
  VALUE OBSERVED: "> 100 µM (inactive)"
- COMPOUND: "O=S1(=O)c2ccccc2C(=NO)c2ccccc21"
  STUDY TARGET: "UO-31"
  MEASURED METRIC: "GI50"
  VALUE OBSERVED: "28.2 µM (inactive)"
- COMPOUND: "O=C1NC(O)c2cc3ccccc3cc2O1 (stereo unspecified)"
  STUDY TARGET: "UO-31"
  MEASURED METRIC: "GI50"
  VALUE OBSERVED: "> 100 µM (inactive)"
- COMPOUND: "CN(C)CCNc1ccc2nnn3c4ccc(O)cc4c(=O)c1c23"
  STUDY TARGET: "UO-31"
  MEASURED METRIC: "GI50"
  VALUE OBSERVED: "2.22 µM (inactive)"
- COMPOUND: "CC(C)(CN1CCCCC1)C(=O)/C=C/c1ccccc1"
  STUDY TARGET: "UO-31"
  MEASURED METRIC: "GI50"
  VALUE OBSERVED: "15.2 µM (inactive)"

What the record says about O=C1CCC(c2nc3cc(Cl)ccc3o2)C(=O)N1 (stereo unspecified) : GI50 is > 100 µM (inactive)

###

Tested on: M14
EXPERIMENTAL PROTOCOL: NCI tumour cell line growth inhibition, 48 h
The source made the active and inactive calls. Rule as the data show it: active = GI50 up to about 1.1 µM and inactive = higher.
Documented GI50 across a set of compounds

Record O=C1NC(O)c2cc3ccccc3cc2O1 (stereo not given) . Reported GI50: 38.6 µM (inactive)

So, `Cc1nnc2n1N=C(c1ccc(-c3ccc([N+](=O)[O-])cc3)o1)CS2` ? Its GI50 was > 100 µM (inactive)

Note to self: GI50 recorded for `C=CC[P@]1(=O)O[C@H](c2ccccc2)[C@H](C)N1C` was > 100 µM (inactive)

For `O=C1C=CC(=O)c2c1ccc1c3ccccc3n(-c3cccc([N+](=O)[O-])c3)c21` the compound record lists GI50 as 1.73 µM (inactive)

// GI50 lookup, compound = CCc1cc(Cc2cc(CC)c(NC(=O)C3=CC(=O)CC(c4ccc(OC)cc4)O3)c(CC)c2Cl)c(Cl)c(CC)c1NC(=O)C1=CC(=O)CC(c2ccc(OC)cc2)O1 (stereo not given) , result: 17 µM (inactive)

###

# GI50 per record follows
Tested on: SK-OV-3
EXPERIMENTAL PROTOCOL: NCI tumour cell line growth inhibition, 48 h
Active and inactive are the calls of the source. No stated cut-off is given here; in the data, active = GI50 up to about 1.1 µM and inactive = higher.

Lab entry: SK-OV-3 assay, compound COc1cccc(C2c3cc4c(cc3OC(C)(N3CCCC3)C2C)OCO4)c1 (stereo not given) , GI50 = 11.9 µM (inactive)

Value (GI50, SK-OV-3) for record Cc1ccccc1NC(=O)C(=O)C(c1cnc2ccc([N+](=O)[O-])cc2n1)[N+](=O)[O-] (stereo not given) = > 100 µM (inactive)

SK-OV-3 assay, compound CC1(C)Oc2ccc3c(=O)cc(-c4cccs4)oc3c2C1C(=O)O (stereo not given) , recorded GI50 = > 100 µM (inactive)

Entry `Oc1ccc(O)c(-n2cccn2)c1` , SK-OV-3 data, GI50 value: > 100 µM (inactive)

Entry `COC(=O)c1cc(=O)n(-c2ccc3nn(C)nc3c2)cc1C(=O)OC` , SK-OV-3 data, GI50 value: > 100 µM (inactive)

Form field, GI50 with SK-OV-3, item `C=C([C@@]1(O)C[C@H]2[C@H](CCC2(OC)OC)[C@@H]2c3ccccc3O[C@@H]21)[Si](C)(C)C` : > 100 µM (inactive)

Known value: SK-OV-3 GI50 of the compound `COc1c2ccoc2c(S(=O)(=O)Nc2ccc(Cl)cc2)c2oc(C)cc(=O)c12` equals > 100 µM (inactive)

For the compound `CN(C(=O)C1=CCC2(CC1)OCCO2)c1ccccc1OS(=O)(=O)C(F)(F)F` , the measured GI50 on SK-OV-3 was > 100 µM (inactive)

Record for `O=S(=O)(c1ccc2ccccc2c1)N1CCN(S(=O)(=O)c2ccc3ccccc3c2)CC1` under target or system SK-OV-3: GI50 reported as 51.3 µM (inactive)

Per the reported SK-OV-3 data, Clc1ccc(COC(Cn2ccnc2)c2ccc(Cl)cc2Cl)cc1 (stereo not given) [ECONAZOLE NITRATE] has GI50 of 19.7 µM (inactive)
